target: human JAK2 (Homo sapiens (Human), UniProt O60674); experiment: JAK2 TR-FRET kinase assay; type: biochemical; conditions: JAK2 0.025 nM
Sequence (O60674 whole entry): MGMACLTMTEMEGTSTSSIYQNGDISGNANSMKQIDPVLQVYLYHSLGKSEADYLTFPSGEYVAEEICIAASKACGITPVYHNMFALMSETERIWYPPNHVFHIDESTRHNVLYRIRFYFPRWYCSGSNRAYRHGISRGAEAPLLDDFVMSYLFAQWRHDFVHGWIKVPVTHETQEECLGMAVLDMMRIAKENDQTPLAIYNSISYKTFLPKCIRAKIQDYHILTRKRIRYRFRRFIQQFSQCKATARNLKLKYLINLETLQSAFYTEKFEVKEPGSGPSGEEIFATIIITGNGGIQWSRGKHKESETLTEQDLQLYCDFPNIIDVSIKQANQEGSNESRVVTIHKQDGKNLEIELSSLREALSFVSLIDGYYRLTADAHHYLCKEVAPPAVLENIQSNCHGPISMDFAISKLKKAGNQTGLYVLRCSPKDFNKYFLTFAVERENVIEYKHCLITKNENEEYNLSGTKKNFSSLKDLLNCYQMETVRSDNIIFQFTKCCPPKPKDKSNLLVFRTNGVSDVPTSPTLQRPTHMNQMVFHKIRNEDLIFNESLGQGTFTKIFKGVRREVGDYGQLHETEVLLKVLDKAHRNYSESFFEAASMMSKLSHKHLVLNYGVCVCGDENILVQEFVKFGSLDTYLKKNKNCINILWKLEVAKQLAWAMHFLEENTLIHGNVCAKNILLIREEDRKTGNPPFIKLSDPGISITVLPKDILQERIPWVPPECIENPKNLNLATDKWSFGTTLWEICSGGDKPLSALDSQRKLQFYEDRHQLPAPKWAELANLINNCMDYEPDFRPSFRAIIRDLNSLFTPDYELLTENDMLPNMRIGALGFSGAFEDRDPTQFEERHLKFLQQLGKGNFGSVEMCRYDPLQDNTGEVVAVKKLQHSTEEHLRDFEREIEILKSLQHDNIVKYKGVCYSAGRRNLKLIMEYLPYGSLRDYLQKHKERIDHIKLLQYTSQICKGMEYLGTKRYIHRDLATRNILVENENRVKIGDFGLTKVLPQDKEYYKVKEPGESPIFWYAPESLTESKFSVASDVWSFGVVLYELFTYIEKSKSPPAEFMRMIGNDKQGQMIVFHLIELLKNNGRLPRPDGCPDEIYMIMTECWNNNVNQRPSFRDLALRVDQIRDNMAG
Please provide measured IC50 for the entries that follow.

# annotated cases, reported IC50 shown
# COMPOUND, RESULT
records = [
    ("CCC(=O)c1cnc(Nc2cc(OC)n(CCOC)n2)cc1Nc1cccc(-c2ncn(C)n2)c1OC [Compound 21Y]", "50 to 500 nM"),
    ("CCC(=O)c1cnc(Nc2ccc(OC3COC3)cn2)cc1Nc1cccc(-c2ncn(C)n2)c1OC [Compound 18Z]", "≥ 500 nM"),
]

For every item in the list below, what is its measured IC50?
1. CCC(=O)c1cnc(Nc2ccc(CS(C)(=O)=O)cn2)cc1Nc1nccc(-c2ncn(C)n2)c1OC [Compound 13M]
2. CCC(=O)c1cnc(Nc2ccc(CNC)cn2)cc1Nc1cccc(-c2ncn(C)n2)c1OC [Compound 9C]

Result string:
["50 to 500 nM", "≥ 500 nM"]

====

biological target: TYK2 JH2 domain (Homo sapiens (Human)); test: TYK2 JH2 NanoBRET assay; format: binding; conditions: Table 20, read-out: TYK2 IC50
pIC50: −log10 of the molar value.
QUANTITY MEASURED: pIC50

Reference set (5 entries):
# MOLECULE, SYSTEM TESTED, pIC50
data = [
    ("CCC(=O)c1cnc(Nc2ccn([C@H]3C[C@@H](OC(F)F)C3)n2)cc1Nc1cccc(-c2ncn(C)n2)c1OC [Compound 21BB]", "TYK2 JH2 domain (Homo sapiens (Human))", "> 8.30"),
    ("CCC(=O)c1cnc(Nc2ccc(C(C)NCC(F)F)cn2)cc1Nc1cccc(-c2ncn(C)n2)c1OC (stereo not shown) [Compound 9AA]", "TYK2 JH2 domain (Homo sapiens (Human))", "> 8.30"),
    ("CCC(=O)c1cnc(Nc2ccc(-n3ccnc(C)c3=O)cn2)cc1Nc1cccc(-c2ncn(C)n2)c1OC [Compound 15X]", "TYK2 JH2 domain (Homo sapiens (Human))", "7.30 to 8.30"),
    ("CCC(=O)c1cnc(Nc2ccc(CN3C[C@@H](C)O[C@@H](C)C3)cn2)cc1Nc1cccc(-c2ncn(C)n2)c1OC [Compound 9UU]", "TYK2 JH2 domain (Homo sapiens (Human))", "> 8.30"),
    ("CCC(=O)c1cnc(Nc2ccn([C@H]3C[C@@H](OC)C3)n2)cc1Nc1cccc(-c2ncn(C)n2)c1OC [Compound 21A]", "TYK2 JH2 domain (Homo sapiens (Human))", "7.30 to 8.30"),
]

I would be grateful if you could provide pIC50 for each of the following entries.
1. CCC(=O)c1cnc(Nc2ccc(C(=O)O)cn2)cc1Nc1cccc(-c2ncn(C)n2)c1OC [Compound 8B]
2. CCC(=O)c1cnc(Nc2ccc(OCCN3CCCC3)cn2)cc1Nc1cccc(-c2ncn(C)n2)c1OC [Compound 10A]

Result string:
["6.30 to 7.30", "> 8.30"]

====

pIC50: −log10 of the molar value.
# UniProtKB P52333: pIC50 values follow
# Sequence (P52333 whole entry): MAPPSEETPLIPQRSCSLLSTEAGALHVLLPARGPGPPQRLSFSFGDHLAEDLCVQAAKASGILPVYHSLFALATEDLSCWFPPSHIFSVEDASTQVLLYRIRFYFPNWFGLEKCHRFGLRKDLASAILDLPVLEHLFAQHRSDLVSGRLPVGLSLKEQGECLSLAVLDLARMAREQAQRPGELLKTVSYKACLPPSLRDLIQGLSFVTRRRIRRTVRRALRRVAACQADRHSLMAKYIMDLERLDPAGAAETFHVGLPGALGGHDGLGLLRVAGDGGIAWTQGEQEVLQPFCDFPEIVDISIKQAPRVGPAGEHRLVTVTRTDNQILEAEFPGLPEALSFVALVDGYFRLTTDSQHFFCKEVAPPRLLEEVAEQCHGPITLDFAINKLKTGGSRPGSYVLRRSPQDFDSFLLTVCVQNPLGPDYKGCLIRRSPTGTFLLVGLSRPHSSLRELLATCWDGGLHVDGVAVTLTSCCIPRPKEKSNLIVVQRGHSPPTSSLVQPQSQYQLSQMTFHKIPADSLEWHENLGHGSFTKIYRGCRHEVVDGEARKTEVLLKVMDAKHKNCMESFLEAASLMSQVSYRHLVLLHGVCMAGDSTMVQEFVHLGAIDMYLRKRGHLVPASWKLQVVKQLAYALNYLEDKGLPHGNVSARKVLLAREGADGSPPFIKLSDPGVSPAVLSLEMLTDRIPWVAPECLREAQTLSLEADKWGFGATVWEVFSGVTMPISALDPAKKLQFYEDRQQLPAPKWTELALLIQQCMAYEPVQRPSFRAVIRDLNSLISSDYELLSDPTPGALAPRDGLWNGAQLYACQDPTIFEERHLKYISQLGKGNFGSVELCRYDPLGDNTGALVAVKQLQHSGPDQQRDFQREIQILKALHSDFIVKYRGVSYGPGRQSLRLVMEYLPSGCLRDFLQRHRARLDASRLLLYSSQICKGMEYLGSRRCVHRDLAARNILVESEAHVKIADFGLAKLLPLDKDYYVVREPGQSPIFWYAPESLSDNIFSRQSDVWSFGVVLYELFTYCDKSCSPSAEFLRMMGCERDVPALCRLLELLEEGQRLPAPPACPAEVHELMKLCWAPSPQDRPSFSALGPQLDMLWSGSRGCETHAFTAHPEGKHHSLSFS

Reference set, count: 2
# MOLECULE, SYSTEM TESTED, QUANTITY MEASURED, RESULT
rows = [
    ("CCC(=O)c1cnc(Nc2ccn([C@H]3C[C@H](C#N)C3)n2)cc1Nc1cccc(-c2ncn(C)n2)c1OC [Compound 210]", "UniProtKB P52333", "pIC50", "≤ 6.30"),
    ("CCC(=O)c1cnc(Nc2ccc(CCNC)cn2)cc1Nc1cccc(-c2ncn(C)n2)c1OC [Compound 11B]", "UniProtKB P52333", "pIC50", "≤ 6.30"),
]

Consider now this further molecule.
Query string: I'd like to know its pIC50. The molecule in question is CCC(=O)c1cnc(Nc2ccc(OC(CO)CO)cn2)cc1Nc1cccc(-c2ncn(C)n2)c1OC [Compound 18H]
Result string: ≤ 6.30

====

target: TYK2 JH2 domain (Homo sapiens (Human), UniProt P29597); assay: TYK2 JH2 NanoBRET assay; format: binding; conditions: Table 20, read-out: TYK2 IC50
Sequence (P29597 589-875): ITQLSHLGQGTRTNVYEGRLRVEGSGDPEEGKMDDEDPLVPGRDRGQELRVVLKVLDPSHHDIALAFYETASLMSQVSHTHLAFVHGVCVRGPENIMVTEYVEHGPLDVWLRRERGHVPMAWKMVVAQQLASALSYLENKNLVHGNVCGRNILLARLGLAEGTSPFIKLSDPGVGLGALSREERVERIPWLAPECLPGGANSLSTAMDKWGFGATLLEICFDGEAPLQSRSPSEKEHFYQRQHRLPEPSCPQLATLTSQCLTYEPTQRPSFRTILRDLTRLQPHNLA
pIC50: −log10 of the molar value.
QUANTITY MEASURED: pIC50

Record excerpt, results attached:
# COMPOUND, pIC50
measured = [
    ("CCC(=O)c1cnc(Nc2ccnc(OCCCN(C)C)n2)cc1Nc1cccc(-c2ncn(C)n2)c1OC [Compound 18HH]", "> 8.30"),
    ("CCC(=O)c1cnc(Nc2ccc([C@@H](C)N(C)C)cn2)cc1Nc1cccc(-c2ncn(C)n2)c1OC [Compound 9J]", "> 8.30"),
    ("CCC(=O)c1cnc(Nc2cccc(C(=O)O)n2)cc1Nc1cccc(-c2ncn(C)n2)c1OC [Compound 8I]", "≤ 6.30"),
    ("CCC(=O)c1cnc(Nc2ccc(C(C)(C)NC)nn2)cc1Nc1cccc(-c2ncn(C)n2)c1OC [Compound 9MMM]", "7.30 to 8.30"),
    ("CCC(=O)c1cnc(NC(=O)CCN2CCCC2)cc1Nc1cccc(-c2ncn(C)n2)c1OC [Compound 23D]", "6.30 to 7.30"),
]

Batch request: pIC50 per item, same order as input.
1. CCC(=O)c1cnc(Nc2cc(OC)n(CCOC)n2)cc1Nc1cccc(-c2ncn(C)n2)c1OC [Compound 21Y]
2. CCC(=O)c1cnc(Nc2ccc(-n3ccnc3)cn2)cc1Nc1nccc(-c2ncn(C)n2)c1OC [Compound 15P]

Result string:
7.30 to 8.30
> 8.30

====

target: TYK2 JH2 domain (Homo sapiens (Human)); test: TYK2 JH2 NanoBRET assay; format: binding; details: Table 20, read-out: TYK2 IC50
QUANTITY MEASURED: IC50

# COMPOUND, IC50
measured = [
    ("CCC(=O)c1cnc(Nc2ccnc(O[C@H]3CCN(C)C3)n2)cc1Nc1cccc(-c2ncn(C)n2)c1OC [Compound 18KK]", "5 to 50 nM"),
    ("CCC(=O)c1cnc(Nc2cnc(CN3CCN(C)CC3)cn2)cc1Nc1cccc(-c2ncn(C)n2)c1OC", "< 5 nM"),
    ("CCC(=O)c1cnc(Nc2ccc(C(C)N(C)C)cn2)cc1Nc1cccc(-c2ncn(C)n2)c1OC (centres unmarked)", "< 5 nM"),
    ("CCC(=O)c1cnc(Nc2cnc(O[C@@H]3CCN(C)C3)c(C)n2)cc1Nc1cccc(-c2ncn(C)n2)c1OC", "5 to 50 nM"),
    ("CCC(=O)c1cnc(Nc2ccc(CN(C)C3COC3)cn2)cc1Nc1cccc(-c2ncn(C)n2)c1OC", "< 5 nM"),
    ("COc1c(Nc2cc(Nc3ccc(OCCN(C)C)cn3)ncc2C(=O)C2CC2)cccc1-c1ncn(C)n1 [Compound 18T]", "5 to 50 nM"),
    ("CCC(=O)c1cnc(Nc2cnc(OCCNC)cn2)cc1Nc1cccc(-c2ncn(C)n2)c1OC [Compound 18NN]", "< 5 nM"),
    ("[2H]C([2H])([2H])CC(=O)c1cnc(Nc2ccn(-c3ccccc3)c(=O)n2)cc1Nc1cccc(-c2ncn(C)n2)c1OC [Compound 15T]", "< 5 nM"),
]

Each of the following entries comes with a recorded value; kindly state IC50 for each.
1. CCC(=O)c1cnc(Nc2cnc(OCCN3CCOCC3)cn2)cc1Nc1cccc(-c2ncn(C)n2)c1OC
2. CCC(=O)c1cnc(Nc2ccc(CN3CC(OC)C3)cn2)cc1Nc1cccc(-c2ncn(C)n2)c1OC
3. CCC(=O)c1cnc(Nc2ccn(CC3CN(C)C3)n2)cc1Nc1cccc(-c2ncn(C)n2)c1OC [Compound 21X]
4. CCC(=O)c1cnc(Nc2ccc(C(C)N)nn2)cc1Nc1cccc(-c2ncn(C)n2)c1OC (centres unmarked)
5. COc1c(Nc2cc(Nc3ccc(-n4ccnc4)cn3)ncc2C(=O)C2CC2)cccc1-c1ncn(C)n1 [Compound 15Q]

Result string:
1. 5 to 50 nM
2. < 5 nM
3. 50 to 500 nM
4. 5 to 50 nM
5. < 5 nM

Need IC50 for each of these compounds.
1. CCC(=O)c1cnc(Nc2ccc(CCNC)cn2)cc1Nc1cccc(-c2ncn(C)n2)c1OC [Compound 11B]
2. CCC(=O)c1cnc(Nc2ccc3c(c2)COB3O)cc1Nc1cccc(-c2ncn(C)n2)c1OC [Compound 15BB]
3. CCC(=O)c1cnc(NC(=O)C2CC2c2cnn(C)c2)cc1Nc1cccc(-c2ncn(C)n2)c1OC (centres unmarked) [Compound 22A]
4. CCC(=O)c1cnc(Nc2cccc(CN3CCCC3)n2)cc1Nc1cccc(-c2ncn(C)n2)c1OC
5. CCC(=O)c1cnc(Nc2cnc(O[C@@H]3CCN(C)C3)cn2)cc1Nc1nccc(-c2ncn(C)n2)c1OC
6. CCC(=O)c1cnc(Nc2cnc(CCN(C)C)cn2)cc1Nc1cccc(-c2ncn(C)n2)c1OC [Compound 11I]
7. CCC(=O)c1cnc(Nc2cnc(OCCO)cn2)cc1Nc1cccc(-c2ncn(C)n2)c1OC [Compound 18P]

Result string:
5 to 50 nM
5 to 50 nM
5 to 50 nM
5 to 50 nM
≥ 500 nM
5 to 50 nM
5 to 50 nM

Give IC50 for each of the items listed below.
1. CCC(=O)c1cnc(Nc2cn([C@H]3C[C@@H](O)C3)cn2)cc1Nc1cccc(-c2ncn(C)n2)c1OC [Compound 21P]
2. CCC(=O)c1cnc(Nc2ccn(CC3(CO)COC3)n2)cc1Nc1cccc(-c2ncn(C)n2)c1OC [Compound 21U]
3. [2H]C([2H])([2H])N1CC[C@@H](Oc2cnc(Nc3cc(Nc4cccc(-c5ncn(C)n5)c4OC)c(C(=O)CC)cn3)cn2)C1
4. CCC(=O)c1cnc(Nc2cc(CN3CCCCC3)ccn2)cc1Nc1cccc(-c2ncn(C)n2)c1OC
5. CCC(=O)c1cnc(Nc2ccc(-c3cn(C)cn3)cn2)cc1Nc1nccc(-c2ncn(C)n2)c1OC [Compound 15J]
6. CCC(=O)c1cnc(Nc2cnc(CN)cn2)cc1Nc1cccc(-c2ncn(C)n2)c1OC
7. CCC(=O)c1cnc(Nc2ccc(S(C)(=O)=O)cn2)cc1Nc1ccc(C(=O)N2CCCC2)cc1OC [Compound 13W]

Result string:
1: 5 to 50 nM; 2: 50 to 500 nM; 3: 5 to 50 nM; 4: < 5 nM; 5: < 5 nM; 6: < 5 nM; 7: 50 to 500 nM

Give me IC50 for each of these compounds, listed below.
1. CCC(=O)c1cnc(Nc2ccc(C(N)C(F)(F)F)cn2)cc1Nc1cccc(-c2ncn(C)n2)c1OC (centres unmarked)
2. CCC(=O)c1cnc(Nc2cnc(OCCN)cn2)cc1Nc1cccc(-c2ncn(C)n2)c1OC [Compound 18MM]

Result string:
1: < 5 nM; 2: < 5 nM

This collection of values is drawn from patent US20230295119A1.
